The measurements presented in this section are drawn from the supplement of paper PMC10307832.

- Test system: LK-2
- protocolDescription: relative viability (nuclei count vs DMSO), 5 days (fraction); higher = more cells survive
- studyConditions: first compound 0.2 µM
relative viability for assorted compounds
attributeMeasured: relative viability

CN1CCN(CCOc2cc(OC3CCOCC3)c3c(Nc4c(Cl)ccc5c4OCO5)ncnc3c2)CC1 [Saracatinib] + Cc1cc(Nc2cc(N3CCN(C)CC3)nc(Sc3ccc(NC(=O)C4CC4)cc3)n2)n[nH]1 [Tozasertib] (partner 0.1 µM); 0.188
CN1CCN(CCOc2cc(OC3CCOCC3)c3c(Nc4c(Cl)ccc5c4OCO5)ncnc3c2)CC1 [Saracatinib] + O=C(c1cc(Cc2n[nH]c(=O)c3ccccc23)ccc1F)N1CCN(C(=O)C2CC2)CC1 [Olaparib] (partner 8 µM); 0.505
Cc1csc(=NC2CCCCC2)n1/N=C/c1ccc(O)c(O)c1O [MIM1] + C[C@@H](Oc1cc(-c2cnn(C3CCNCC3)c2)cnc1N)c1c(Cl)ccc(F)c1Cl [Crizotinib] (partner 1 µM); 0.234
Cc1csc(=NC2CCCCC2)n1/N=C/c1ccc(O)c(O)c1O [MIM1] + CCNC(=O)c1noc(-c2cc(C(C)C)c(O)cc2O)c1-c1ccc(CN2CCOCC2)cc1 [Luminespib] (partner 0.01 µM); 0.16

* * *

relative viability values by entry
- Tested on: NCI-H661
- protocolDescription: relative viability (nuclei count vs DMSO), 5 days (fraction); higher = more cells survive
- studyConditions: first compound 0.002 µM
attributeMeasured: relative viability

CCNC(=O)c1noc(-c2cc(C(C)C)c(O)cc2O)c1-c1ccc(CN2CCOCC2)cc1 [Luminespib] + Cc1nc(Nc2ncc(C(=O)Nc3c(C)cccc3Cl)s2)cc(N2CCN(CCO)CC2)n1 [Dasatinib] (partner 0.075 µM); 0.891
CCNC(=O)c1noc(-c2cc(C(C)C)c(O)cc2O)c1-c1ccc(CN2CCOCC2)cc1 [Luminespib] + CS(=O)(=O)CCNCc1ccc(-c2ccc3ncnc(Nc4ccc(OCc5cccc(F)c5)c(Cl)c4)c3c2)o1 [Lapatinib] (partner 2 µM); 0.469
CCNC(=O)c1noc(-c2cc(C(C)C)c(O)cc2O)c1-c1ccc(CN2CCOCC2)cc1 [Luminespib] + COc1cccc2cc(-c3nc([C@H]4CC[C@H](C(=O)O)CC4)n4ncnc(N)c34)[nH]c12 [OSI-027] (partner 0.5 µM); 0.802
CCNC(=O)c1noc(-c2cc(C(C)C)c(O)cc2O)c1-c1ccc(CN2CCOCC2)cc1 [Luminespib] + CS(=O)(=O)N1CCN(Cc2cc3nc(-c4cccc5[nH]ncc45)nc(N4CCOCC4)c3s2)CC1 [Pictilisib] (partner 1 µM); 0.357
CCNC(=O)c1noc(-c2cc(C(C)C)c(O)cc2O)c1-c1ccc(CN2CCOCC2)cc1 [Luminespib] + O=C(CCCCCCC(=O)Nc1ccccc1)NO [Vorinostat] (partner 1 µM); 0.777
CCNC(=O)c1noc(-c2cc(C(C)C)c(O)cc2O)c1-c1ccc(CN2CCOCC2)cc1 [Luminespib] + O=C(c1cc(Cc2n[nH]c(=O)c3ccccc23)ccc1F)N1CCN(C(=O)C2CC2)CC1 [Olaparib] (partner 8 µM); 0.754

* * *

The following compounds are shown together with reported relative viability values.
- System: HCC-44
- protocolDescription: relative viability (nuclei count vs DMSO), 5 days (fraction); higher = more cells survive
- studyConditions: first compound 0.6325 µM
attributeMeasured: relative viability

CN1CCN(CCOc2cc(OC3CCOCC3)c3c(Nc4c(Cl)ccc5c4OCO5)ncnc3c2)CC1 [Saracatinib] + CC1(C)CCC(c2ccc(Cl)cc2)=C(CN2CCN(c3ccc(C(=O)NS(=O)(=O)c4ccc(N[C@H](CCN5CCOCC5)CSc5ccccc5)c(S(=O)(=O)C(F)(F)F)c4)cc3)CC2)C1 [Navitoclax] (partner 0.5 µM); 1.08
Cc1csc(=NC2CCCCC2)n1/N=C/c1ccc(O)c(O)c1O [MIM1] + COc1cccc2cc(-c3nc([C@H]4CC[C@H](C(=O)O)CC4)n4ncnc(N)c34)[nH]c12 [OSI-027] (partner 0.5 µM); 0.5
Cc1csc(=NC2CCCCC2)n1/N=C/c1ccc(O)c(O)c1O [MIM1] + Cc1cc(Nc2cc(N3CCN(C)CC3)nc(Sc3ccc(NC(=O)C4CC4)cc3)n2)n[nH]1 [Tozasertib] (partner 0.1 µM); 1.1
CN1CCN(CCOc2cc(OC3CCOCC3)c3c(Nc4c(Cl)ccc5c4OCO5)ncnc3c2)CC1 [Saracatinib] + CC(C)C[C@H](NC(=O)[C@H](Cc1ccccc1)NC(=O)c1cnccn1)B(O)O [Bortezomib] (partner 0.002 µM); 0.93
